# SYSTEM_UNDER_TEST: recombinant human mGluR2 (Homo sapiens)
# Sequence (Q14416 19-872): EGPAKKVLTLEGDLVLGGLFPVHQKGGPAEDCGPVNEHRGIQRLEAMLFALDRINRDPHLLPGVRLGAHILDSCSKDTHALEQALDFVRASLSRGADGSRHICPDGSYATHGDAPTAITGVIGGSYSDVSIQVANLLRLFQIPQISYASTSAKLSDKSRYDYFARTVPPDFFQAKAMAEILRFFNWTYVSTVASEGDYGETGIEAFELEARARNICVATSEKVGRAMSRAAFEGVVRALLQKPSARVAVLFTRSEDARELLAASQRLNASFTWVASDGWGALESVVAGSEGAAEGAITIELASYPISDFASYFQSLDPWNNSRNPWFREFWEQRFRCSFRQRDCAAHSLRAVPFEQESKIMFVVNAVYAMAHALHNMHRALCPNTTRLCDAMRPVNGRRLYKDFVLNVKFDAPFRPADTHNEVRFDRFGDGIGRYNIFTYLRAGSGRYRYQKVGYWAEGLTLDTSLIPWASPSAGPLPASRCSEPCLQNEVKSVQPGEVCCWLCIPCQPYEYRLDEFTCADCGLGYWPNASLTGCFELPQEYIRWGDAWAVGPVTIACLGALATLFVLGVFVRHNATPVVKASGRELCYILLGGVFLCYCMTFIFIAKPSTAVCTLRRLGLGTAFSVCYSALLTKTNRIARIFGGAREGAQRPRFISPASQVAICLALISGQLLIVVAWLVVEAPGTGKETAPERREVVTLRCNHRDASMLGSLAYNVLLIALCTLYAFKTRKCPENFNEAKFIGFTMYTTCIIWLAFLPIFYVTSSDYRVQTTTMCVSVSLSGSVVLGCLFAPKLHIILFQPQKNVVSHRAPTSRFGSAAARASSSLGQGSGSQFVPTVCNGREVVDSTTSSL
# PROCEDURE_DETAILS: FLIPR Ca2+ mobilization assay, potentiation of glutamate response
# APPLIED_CONDITIONS: CHO dhfr- cells expressing human mGluR2 and Gα16; potentiation after EC20 glutamate (900 nM); read-out: Representative FLIPR EC50 Values: EC50
ENDPOINT_NAME: EC50 (nM)

1) c1ccc2c(c1)nc1n2CC(CC2CCCCC2)O1 (stereo not shown) [Example 3-5] : 2140
2) CCCCCCC1(CC)Cn2c(nc3ccccc32)O1 (stereo not shown) [Example 4-3] : 2290

(P) CCCCCCC1(C)Cn2c(nc3ccccc32)O1 (stereo not shown) [Example 4-2]
(Q) COCCCCC1Cn2c(nc3ccccc32)O1 (stereo not shown) [Example 1-21]
(R) CCCCCC[C@@H]1Cn2c(nc3cc(C#N)ccc32)O1 [Example 1-19]
(S) CCCCCC[C@@H]1Cn2c(nc3ccccc32)O1 [Example 1-5]
(T) CC(C)(C)OC(=O)N1CCCC(C2Cn3c(nc4ccccc43)O2)C1 (stereo not shown) [Example 3-7]
Query: Please put the entries in order of rising EC50. Put the labels in the order asked and list them.
Response: R, S, T, P, Q
(R: 11 nM, S: 21 nM, T: 378 nM, P: 622 nM, Q: 3120 nM)
